target-or-test-system: Neu5Ac(a2-3)Gal(b1-3)[Fuc(a1-4)]GlcNAc(b1-3)Gal(b1-3)[Fuc(a1-4)]GlcNAc
protocol-text: glycan array binding signal (z-score within array); higher = stronger binding
particulars: glycan notation: IUPAC condensed, linker removed
This is one part of a sample in which the strongest signals are shown more often than they occur.
endpoint-name: glycan array binding signal (z-score)

QUERY: So what does the record say about glycan array binding signal (z-score) for cupB6 (Pseudomonas aeruginosa), Q02SP7 (protein) MSMRLFPGRVSLRRRPGAQARQALVLGLCCLTGGQAWALNEVALNCSFGNGKGLPWRVVNELTSGTAKGTVLFARPVSLFLSYKPQASQEAHELVLGGNWSGVGYPGPYGTVASDVKGIGYRISVDAQDGVKRVIPVDNQPHALDKRVTSFSGSTTSDYLQELVLTVDPGELPAGDLKVTSVSGSATLNLWAVDRLKGEASIGSVLAVPADNYPTGVCRKPYSLIGPASIAIGGGPPPPPIPKKCKVEVGREINVKLGSVALKNFPRVNDTSTERSFDISLSECAALAKPEIAFRDKYVSAQQADPTILSLKSGGAAGFGIVVKNGLDQQRIRFDGTPYPMRRVGDSADLPLSAAYIRIGAEGELKAGVADGAAEFTFTFP ?
RESULT: 0.124

src = the supplement of paper PMC8728848
